- assayOverview: Cytotoxicity in MT4 cells
- Assay type: cell-based
- conditionSet: human, concentration at which 50% of the cells remain viable, read-out: LC50 (the source's name)
Quick reference for CC50 among some molecules
Enter your answer as a number in µM; do not include the unit.

Solved cases below.
# compoundSmiles, unitsLabel, CC50
records = [
    ("CC(C)c1nc(CN(C)C(=O)N[C@H](C(=O)NN(Cc2ccccc2)C[C@H](O)[C@H](Cc2ccccc2)NC(=O)OCc2cncs2)C(C)C)cs1", "µM", 17),
    ("CC(C)[C@H](NC(=O)OCc1ccccn1)C(=O)N[C@@H](Cc1ccccc1)[C@@H](O)CN(Cc1ccccc1)NC(=O)OC(C)(C)C", "µM", 56),
    ("CC(C)c1nc(CN(C)C(=O)N[C@H](C(=O)NN(Cc2ccccc2)C[C@H](O)[C@H](Cc2ccccc2)NC(=O)OCc2cncs2)C(C)C)co1", "µM", 53),
    ("CC(C)(C)OC(=O)NN(Cc1ccccc1)C[C@H](O)[C@H](Cc1ccccc1)NC(=O)OCc1cncs1", "µM", 44),
]

Let's switch to this molecule now.
Look up and state reported CC50 for CC(C)c1nc(CN(C)C(=O)N[C@H](C(=O)N[C@@H](Cc2ccccc2)[C@@H](O)CN(Cc2ccccc2)NC(=O)OC(C)(C)C)C(C)C)co1
19
